Kindly supply the reported Activity values for the records listed here.
# Organism: Bos taurus
# test-summary: Inhibition of temperature-induced tubulin polymerization of calf brain at 40 uM
# Parameters: scale not given: the % may be the effect or the level left
Give bare numbers, in %.

{"molecule": "O=Cc1c(-c2ccccc2)[nH]c2ccccc12", "quantity-unit": "%", "quantitative-result": 98}
{"molecule": "COc1ccc(-c2[nH]c3ccc(OC)cc3c2C=O)cc1", "quantity-unit": "%", "quantitative-result": 7}
{"molecule": "COc1ccc(-c2[nH]c3ccccc3c2C=O)cc1", "quantity-unit": "%", "quantitative-result": 3}

Note: attention shifts to another entry.
Entry COc1ccc(-c2[nH]c3cc(F)ccc3c2C=O)cc1 — recorded Activity = 8
